tested on: TDF; test: cell number relative to DMSO (% of DMSO); higher = more cells (less growth inhibition / toxicity); details: concentration: 10 µM; 24 h
recorded_endpoint: cell number
Give only the figure.

These solved cases illustrate the format of a correct answer.
Exam item: Output measured cell number for this item: CSc1ccc2c(c1)N(CCC1CCCCN1C)c1ccccc1S2 (centres undefined)
Marked response: 102

Exam item: Supply cell number value. Item: CN1CCN(CCCCN2C(=O)CN(/N=C/c3ccc(-c4ccc(Cl)cc4)o3)C2=O)CC1.Cl.Cl
Marked response: 102

Exam item: Specify cell number for COc1ccc2[nH]cc(CCNC(C)=O)c2c1 and stop.
Marked response: 99.5

Exam item: # return recorded cell number for input O=C(C=CC=Cc1ccc2c(c1)OCO2)N1CCCCC1
Marked response: 97

Exam item: // fetch cell number given entry Clc1ccc(CON=C(Cn2ccnc2)c2ccc(Cl)cc2Cl)c(Cl)c1
Marked response: 101

Further cases:
Exam item: Give the reported value of cell number for this record: CCCCCC=CCC=CC=CC=CC(SCC(N)C(=O)O)C(O)CCCC(=O)O (centres undefined)
Marked response: 101

Exam item: Annotate the compound CNc1cc2c(Nc3cccc(Br)c3)ncnc2cn1 with its measured cell number.
Marked response: 95.7

Exam item: In one line, give reported cell number of the entry O=C1C(SCCO)=C(SCCO)C(=O)c2ccccc21 [2,3-bis[(2-hydroxyethyl)sulfanyl]naphthoquinone] .
Marked response: 84.6

Exam item: Supply reported cell number belonging to this compound: O=C(NCCO[N+](=O)[O-])c1cccnc1
Marked response: 96.3

* * *

tested on: TDF; experiment: H1.0 immunofluorescence intensity relative to DMSO (% of DMSO); higher = stronger H1.0 induction, active = 120 or more; conditions: concentration: 10 µM; 24 h
Consider the following compounds and their measured H1.0 immunofluorescence intensity readings.

Exam item: Write down the reported H1.0 immunofluorescence intensity (system: TDF) of CC(C)(Sc1ccc(CCN(CCCCC2CCCCC2)C(=O)NC2CCCCC2)cc1)C(=O)O
Marked response: 95.7 (inactive)

Exam item: Under TDF: report H1.0 immunofluorescence intensity of O=C1NC(=O)C(=Cc2cccc(C(F)(F)F)c2)S1 .
Marked response: 102 (inactive)

Exam item: With TDF as the test system, provide measured H1.0 immunofluorescence intensity for this compound: Cc1ccc(F)cc1C(=O)Nc1ccc(C(=O)N2Cc3cccn3Cc3ccccc32)c(Cl)c1
Marked response: 93.2 (inactive)

New cases:
Exam item: Jot down H1.0 immunofluorescence intensity (TDF) of CCCCCCCCC=CCCCCCCCCCCCCC(=O)O [14(Z)-Tricosenoic acid] .
Marked response: 100 (inactive)

Exam item: Give TDF H1.0 immunofluorescence intensity for the following compound: O=c1cc(-c2ccc(O)c(O)c2)oc2cc(O)cc(O)c12
Marked response: 124 (active)

Exam item: Please tell me the measured H1.0 immunofluorescence intensity for O=C([O-])C=CC(O)c1ccc(Cl)cc1.[Na+] (stereo not drawn) ; system: TDF.
Marked response: 95.7 (inactive)

Exam item: Find the measured H1.0 immunofluorescence intensity of CC1OC(OCC2OC(Oc3cc(O)c4c(c3)OC(c3ccc(O)cc3)CC4=O)C(O)C(O)C2O)C(O)C(O)C1O (stereo not drawn) with TDF as test system.
Marked response: 94.7 (inactive)

Exam item: Please report the measured H1.0 immunofluorescence intensity for O=C1Nc2cc(Br)ccc2C1=C1N=c2ccccc2=C1NO tested on TDF.
Marked response: 118 (inactive)

* * *

system: TDF; assay: cell number relative to DMSO (% of DMSO); higher = more cells (less growth inhibition / toxicity); settings: concentration: 10 µM; 24 h
recorded_endpoint: cell number

Worked cases, cell number given:
Exam item: Provide cell number, system TDF, entry CC(=O)OC1(C(C)=O)CCC2C3CC(C)C4=CC(=O)CCC4(C)C3CCC21C (configuration not stated) [Medroxyprogesterone 17-Acetate]
Marked response: 112

Exam item: Provide the reported cell number (system: TDF) for CN1CCC(=C2c3ccccc3C=Cc3ccccc32)CC1
Marked response: 83.7

Exam item: Consider the compound COc1c2ccoc2cc2oc(=O)ccc12 tested on TDF; state its cell number.
Marked response: 94

Exam item: Would you please give the reported cell number of CC(C)(C)C(=O)OCOC(=O)[C@@H]1N2C(=O)[C@@H](/N=C/N3CCCCCC3)[C@H]2SC1(C)C with TDF?
Marked response: 93.4

Exam item: Under TDF, report cell number for Cc1ccc(-c2n[nH]c3c2C(c2cccc(O)c2)N(c2ccc(C(=O)O)cc2)C3=O)cc1 (configuration not stated)
Marked response: 92.6

---
Exam item: Answer with cell number of CCC1(O)CC2CN(CCc3c([nH]c4ccccc34)C(C(=O)OC)(c3cc4c(cc3OC)N(C)C3C(O)(C(=O)OC)C(OC(C)=O)C5(CC)C=CCN6CCC43C65)C2)C1.O=S(=O)(O)O (configuration not stated) [Vinblastine sulfate] measured for TDF.
Marked response: 11.2

Exam item: Using TDF as the test system, report measured cell number of CN1CCN(C2=Nc3ccccc3Oc3ccc(Cl)cc32)CC1.O=C(O)CCC(=O)O [Loxapine succinate] .
Marked response: 94.3

* * *

system: TDF; test: cell number relative to DMSO (% of DMSO); higher = more cells (less growth inhibition / toxicity); details: concentration: 10 µM; 24 h
Assign class by cell number: not lower than 100 means label 1; lower than 100 means label 0.

Exam item: Is reported cell number greater than or equal to 100 here: CCCCCC(O)C=CC1C(O)CC(=O)C1CCCCCCC(=O)O (centres undefined) [Prostaglandin E1]
Marked response: label 1

Exam item: I'd appreciate it if you could say whether CCOC(OCC)P(=O)(O)CCCNCc1ccc(Cl)c(Cl)c1 has cell number at least equal to 100.
Marked response: label 0

***
Exam item: Is cell number for CN1Cc2c(N)cccc2C(c2ccccc2)C1.O=C(O)C=CC(=O)O (centres undefined) [Nomifensine maleate] at or above 100?
Marked response: label 1

Exam item: Could you please find out whether CCCCCCCCCCCCCCSCC(=O)O has cell number that meets 100 or exceeds it?
Marked response: label 1

* * *

# key: entry, value: H1.0 immunofluorescence intensity
test system: TDF; test: H1.0 immunofluorescence intensity relative to DMSO (% of DMSO); higher = stronger H1.0 induction, active = 120 or more; conditions: concentration: 10 µM; 24 h
Form: value (number only, do not type unit).

Exam item: Return H1.0 immunofluorescence intensity for the following compound: O=c1cc(-c2ccc(O)cc2)oc2cc(OC3OC(CO)C(O)C(O)C3O)cc(O)c12 (stereo not given) [Apigenin-7-glucoside]
Marked response: 93.7

Exam item: Give a short answer stating reported H1.0 immunofluorescence intensity for Brc1c(Br)c(Br)c2[nH]cnc2c1Br .
Marked response: 111

Exam item: Look up and state reported H1.0 immunofluorescence intensity for CC(C)NNC(=O)c1ccncc1
Marked response: 100

Exam item: Report measured H1.0 immunofluorescence intensity; entry is NC(=O)NO [Hydroxyurea]
Marked response: 93.9

Exam item: Read off the recorded H1.0 immunofluorescence intensity for CN(C)NN=C1N=CN=C1C(N)=O
Marked response: 97.8

* * *

test system: TDF; test: H1.0 immunofluorescence intensity relative to DMSO (% of DMSO); higher = stronger H1.0 induction, active = 120 or more; conditions: concentration: 10 µM; 24 h
recorded_endpoint: H1.0 immunofluorescence intensity
Answer with a bare number; do not write a unit.

Some solved cases for reference:
Exam item: Answer with H1.0 immunofluorescence intensity of O=C(Cc1ccc(Cl)c(Cl)c1)OCCN1CCCC1.O=C(O)C(=O)O [AC 915 oxalate] measured for TDF.
Marked response: 92.1

Exam item: Report value: H1.0 immunofluorescence intensity, system: TDF, compound: CC(C=CC1=C(C)CCCC1(C)C)=CC=CC(C)=CC(=O)O [9-cis Retinoic acid]
Marked response: 87.8

Exam item: Report its H1.0 immunofluorescence intensity with TDF as the test system: CNCCCC12CCC(c3ccccc31)c1ccccc12.Cl [Maprotiline.HCl]
Marked response: 94.5

Exam item: Consider the compound Cc1ccc(Nc2nccc(N(C)c3ccc4c(C)n(C)nc4c3)n2)cc1S(N)(=O)=O [Pazopanib] tested on TDF; state its H1.0 immunofluorescence intensity.
Marked response: 94.6

Exam item: State recorded H1.0 immunofluorescence intensity with TDF, entry Nc1cc(=O)nc(N)[nH]1 [2,6-Diamino-4-pyrimidinone] , no comment.
Marked response: 93.6

Exam item: Quote H1.0 immunofluorescence intensity with test system TDF for CCOC(=O)C1=C(COCCN)NC(C)=C(C(=O)OC)C1c1ccccc1Cl (stereo not drawn) [Amlodipine]
Marked response: 93.5

Exam item: Identify measured H1.0 immunofluorescence intensity obtained with TDF for Cc1ccccc1CNc1ncnc2c1ncn2C1OC(CO)C(O)C1O (stereo not drawn) [Metrifudil] .
Marked response: 93.7

Let us move to another entry and its H1.0 immunofluorescence intensity.
Exam item: // fetch H1.0 immunofluorescence intensity; item: CCN1CCN(C(=O)NC(C(=O)NC2C(=O)N3C(C(=O)O)=C(CSc4nnnn4C)CSC23)c2ccc(O)cc2)C(=O)C1=O (stereo not drawn) [Cefoperazone acid] ; system: TDF
Marked response: 91.9

Reference for the values: the supplement of paper PMC7156485
